# Tested on: HCT-15 colon
# TEST_SUMMARY: NCI tumour cell line growth inhibition, 48 h
Here the recorded GI50 is given for each entry.

// solved cases for GI50 follow
1) CCc1c(Oc2ccc(C(C)=O)cc2)c2ccccc2[nH]c1=O = 16.4 µM
2) O=C1/C(=C/c2ccc(Br)cc2)C=C(c2ccccc2)N1CCc1ccccc1 = 11.7 µM
3) O=C(c1ccco1)c1nc2ccc(C(F)(F)F)cc2[n+]([O-])c1C(F)(F)F = > 100 µM
4) O=C(CN1CCOCC1)Nc1ccc(Cn2nnc3c2C(=O)c2nnn(Cc4ccc(NC(=O)CN5CCOCC5)cc4)c2C3=O)cc1 = 7.42 µM
5) CCOC(=O)/C=C(/C(=O)OCC)n1cc(Cl)c(=O)n(CC(=O)OCC)c1=O = 19 µM

// COc1ccc(C2=NN(C(=O)c3cc(OC)c(OC)c(OC)c3)C(c3ccc(C#N)cc3)C2)cc1OC (stereo not drawn) : GI50 value = 1.48 µM

// `O=[N+]([O-])/C=C\c1ccc(Cl)c(Cl)c1` : GI50 value = 3.23 µM

// `O=C(Nc1ccc(N2CCNCC2)cc1)c1[nH]ncc1Nc1cc(Oc2ccccc2)ncn1` : GI50 value = 2.18 µM

---

Here the recorded TGI is given for each entry.
# Test system: SF-268 CNS
# TEST_SUMMARY: NCI tumour cell line growth inhibition, 48 h
// units = µM; emit number, no label

1) O=c1oc2ccc(F)cc2c(=O)n1-c1ccc(F)cc1F = 52.1

// `CCCCC/C(C=C(C#N)C#N)=C/c1ccccc1` : TGI value = 9.51

---

# Tested on: SN12C renal
# TEST_SUMMARY: NCI tumour cell line growth inhibition, 48 h
Here the recorded TGI is given for each entry.

// solved cases for TGI follow
1. CCCCC/C(C=C(C#N)C#N)=C/c1ccccc1 = 16.9 µM
2. CCOC(=O)CNC(=O)C(CSCc1ccc(Br)cc1)NC(=O)CCC(N)C(=O)OCC (stereo not given) = > 50 µM
3. COC(=O)C1C(C(=O)OC)N(Cc2ccccc2)C(=O)N1Cc1ccccc1 (stereo not given) = > 100 µM

// `O=C(O)Cn1ccc(=O)c2ccc([N+](=O)[O-])cc21` : TGI value = > 100 µM

// `O=C1/C(=C/c2ccccc2)N=C(c2ccccc2)N1n1c(-c2ccccc2)nc2ccccc2c1=O` : TGI value = > 100 µM

---

Here the recorded TGI is given for each entry.
# Tested on: CAKI-1 renal
# TEST_SUMMARY: NCI tumour cell line growth inhibition, 48 h
// units = µM; emit number, no label

// solved cases for TGI follow
1) Brc1ccc(CCNCCN2CCCCC2)cc1 = 29.2
2) CN(C)CCC(=O)N1C/C(=C/c2ccccc2)C(=O)/C(=C\c2ccccc2)C1 = 7.02
3) CN(C)CCNc1cc(-c2ccccc2)nc2ccccc12 = 40.9

Here is the next item to consider.
// `CSc1cc(N=Nc2nc3ccccc3s2)c2ccccc2c1O` : TGI value = 20.3

---

# System: LOX IMVI melanoma
# TEST_SUMMARY: NCI tumour cell line growth inhibition, 48 h
ENDPOINT: TGI

1. C/C(CCOC1CCCCO1)=C(\C)[Si](C)(C)C (stereo not drawn) = > 100 µM
2. COc1ccc2ccc3c(c2c1)CN1CCc2cc(OC)c(OC)cc2C1C3 (stereo not drawn) = > 100 µM

Query `Cc1ccc([C@@H]2[C@@H](C(=O)c3ccccn3)[C@H](c3ccc(C)cc3)C[C@](O)(c3ccccn3)[C@H]2C(=O)c2ccccn2)cc1` on LOX IMVI melanoma; TGI returned: > 100 µM

---

# System: CAKI-1 renal
# TEST_SUMMARY: NCI tumour cell line growth inhibition, 48 h
ENDPOINT: TGI

1. COc1cc2c3c(n(C)c(=O)c2cc1OC)-c1cc2c(cc1/C3=C\CCCN1C(=O)c3ccccc3C1=O)OCO2 = > 40 µM

// `COC(=O)CCCCN=Cc1c(O)c(O)c(C(C)C)c2cc(C)c(-c3c(C)cc4c(C(C)C)c(O)c(O)c(C=NCCCCC(=O)OC)c4c3O)c(O)c12` : TGI value = > 32.5 µM

// `Cc1c(-c2nc3ccccc3[nH]2)c(=O)n(-c2ccccc2)n1C` : TGI value = > 100 µM

// CCCCCCCCCCCCCC(=O)OC1CC(=O)OC1CO (stereo not drawn) : TGI value = > 100 µM

// `CNC(=O)OCc1c(COC(=O)NC)c(-c2ccc(Cl)c(Cl)c2)n2c1SCC2` : TGI value = 23.9 µM

// `CC(C)=CCOC(=O)C(C)=[N+]=[N-]` : TGI value = > 100 µM

// `COc1cccc(/C=N/NC(=O)c2ccccc2Nc2ccnc(C(F)(F)F)c2)c1O` : TGI value = 9.72 µM

// `CC1=C(O)C(=O)[C@@H]2O[C@@H]2C1=O` : TGI value = 16.7 µM

---

# Tested on: KM12 colon
# TEST_SUMMARY: NCI tumour cell line growth inhibition, 48 h; in the data active = GI50 below about 0.43 µM; inactive = the rest
Tick one outcome: true (1) = active, false (0) = inactive

// below: answered molecules
1. O=C(Nc1ccc(N2CCNCC2)cc1)c1[nH]ncc1Nc1cc(Oc2ccccc2)ncn1 = true (1)
2. COc1ccc2c(c1)c(-c1nc(-c3cn(C)c4ncccc34)cs1)cn2CCCN1CCCCC1 = false (0)

// param item: `COc1cccc(/C=N/NC(=O)c2ccccc2Nc2ccnc(C(F)(F)F)c2)c1O` ; yields the recorded call false (0)

---

# Test system: A498 renal
# TEST_SUMMARY: NCI tumour cell line growth inhibition, 48 h; in the data active = GI50 below about 0.43 µM; inactive = the rest
Tick one outcome: active, inactive

// below: answered compounds
1. CN1CCN(Cc2ccc(NC(=O)c3cncc(C#Cc4cnc(N)c5ccc(C#N)cc45)c3)cc2C(F)(F)F)CC1 = active
2. COc1cc(OC)cc(-c2ccc(-c3ccc(C(=N)N)o3)o2)c1 = inactive
3. COc1cccc(/C=N/NC(=O)c2ccccc2Nc2ccnc(C(F)(F)F)c2)c1O = inactive

// param item: `COc1ccc2[nH]c(O)c(/C=c3/cc4c(c(-c5cc(OC)c(OC)c(OC)c5)n3)=Nc3ccccc3-4)c2c1` ; yields the recorded call inactive

// param item: `Cc1ccc(-c2c3c([nH]c(=O)c2C#N)-c2cc(F)ccc2OC3)cc1` ; yields the recorded call inactive

// param item: `COc1cc2c3c(n(C)c(=O)c2cc1OC)-c1cc2c(cc1/C3=C\CCCN1C(=O)c3ccccc3C1=O)OCO2` ; yields the recorded call inactive

// param item: `COc1ccc(/C(=C2\O[C@@H]([C@H]3COC(C)(C)O3)[C@H]3OC(C)(C)O[C@@H]23)c2cc(OC)c(OC)c(OC)c2)cc1O` ; yields the recorded call inactive

// param item: `CCCCC/C(C=C(C#N)C#N)=C/c1ccccc1` ; yields the recorded call inactive

// param item: `O=[N+]([O-])/C=C\c1ccc(Cl)c(Cl)c1` ; yields the recorded call inactive

// param item: `N#C/C(=C1C=C/C(=N/O)C(Br)=C/1)c1ccccc1` ; yields the recorded call inactive

// param item: `CC1=C(CCCNS(C)(=O)=O)C2=C(C)C3(CC3)[C@@](C)(O)C(=O)C2=C1` ; yields the recorded call inactive

// param item: `CCOc1cccc(/C=N/NC(=O)c2ccccc2Nc2ccnc(C(F)(F)F)c2)c1O` ; yields the recorded call inactive

---

Here the recorded TGI is given for each entry.
# System: UACC-257 melanoma
# TEST_SUMMARY: NCI tumour cell line growth inhibition, 48 h

Query `C[C@]12CC[C@H](O)CC1=CC[C@@H]1[C@@H]2CC[C@]2(C)C(c3cccnc3)=CC[C@@H]12` on UACC-257 melanoma; TGI returned: > 100 µM

Query N#CC(C(=N/O)/C(=N/O)C(C#N)c1ccc(Cl)cc1)c1ccc(Cl)cc1 (stereo not drawn) on UACC-257 melanoma; TGI returned: > 100 µM

Query COC(=O)C(=O)C(C(=O)C=C(C)C)C(=O)C(=O)Nc1cc(C(F)(F)F)ccc1Cl (stereo not drawn) on UACC-257 melanoma; TGI returned: > 100 µM

---

Here the recorded TGI is given for each entry.
# System: OVCAR-4 ovarian
# TEST_SUMMARY: NCI tumour cell line growth inhibition, 48 h

// solved cases for TGI follow
1. CC1(C)CC(/C=C2/OC(=O)c3ccccc32)=C(C#N)C(=O)O1 = > 100 µM
2. COC(=O)C[C@H]1CCC2(OCCO2)[C@]1(C)C(=O)OC = > 100 µM
3. O=C(O)CCCCC(CCSCc1ccccc1)SCc1ccccc1 (centres undefined) = > 100 µM
4. O=C1C(Cl)=C(N2CCN(C3=C(Cl)C(=O)c4ccccc4C3=O)CC2)C(=O)c2ccccc21 = 2.94 µM
5. COc1cc(-c2cc(=O)c3cc4c(cc3[nH]2)OCO4)cc(OC)c1O = > 10 µM

Query `COc1cccc(-c2cc(=O)c3cc(N(C)C)ccc3[nH]2)c1` on OVCAR-4 ovarian; TGI returned: > 100 µM

Query `O=C(O)c1c2c(cc3c1CC1(Cc4ccccc4C1)C3)CCC2` on OVCAR-4 ovarian; TGI returned: > 100 µM

Query OC1C2[C@@H](O)CCCN2C[C@@H](O)[C@H]1O (some centres undefined) on OVCAR-4 ovarian; TGI returned: > 100 µM

Query `CC(C)CC(=O)[O-].CC(C)CC(=O)[O-].N.N.N.N.[Co+3].[O-][Cl+3]([O-])([O-])[O-]` on OVCAR-4 ovarian; TGI returned: > 100 µM

Query `N#Cc1ccc(C#Cc2ccccc2C#CCCCCO)cc1` on OVCAR-4 ovarian; TGI returned: 65.9 µM

Query `O=C1/C(=C/c2ccccc2)N=C(c2ccccc2)N1n1c(-c2ccccc2)nc2ccccc2c1=O` on OVCAR-4 ovarian; TGI returned: > 100 µM

Query OCCC1(O)CCC(O)CC1 (centres undefined) on OVCAR-4 ovarian; TGI returned: > 100 µM

Query `COc1ccc2[nH]c(O)c(/C=c3/cc4c(c(-c5cc(OC)c(OC)c(OC)c5)n3)=Nc3ccccc3-4)c2c1` on OVCAR-4 ovarian; TGI returned: > 100 µM

Query `COc1ccccc1Nc1nc(N)nc(N)c1N=O` on OVCAR-4 ovarian; TGI returned: > 100 µM

Query `O=c1[nH]n2c(=O)cc[nH]c2c1-c1nnns1` on OVCAR-4 ovarian; TGI returned: > 100 µM

Query `C[C@]12CC[C@@H]3c4ccc(O)cc4CC[C@H]3[C@@H]1C/C(=C\c1ccncc1)C2=O` on OVCAR-4 ovarian; TGI returned: > 100 µM

Query `O=C1c2cccc(NCCN=Cc3cc(O)ccc3O)c2C(=O)c2c(NCCN=Cc3cc(O)ccc3O)cccc21` on OVCAR-4 ovarian; TGI returned: 2.64 µM
